For each of the compounds below, state its pIC50.
# tested_system: human PAD4 (Homo sapiens, UniProt Q9UM07)
# Construct: human PAD4 (NM_012387), A2P663, was PCR amplified; His-SUMO (N, cleaved yes)
# Sequence (Q9UM07 2-663): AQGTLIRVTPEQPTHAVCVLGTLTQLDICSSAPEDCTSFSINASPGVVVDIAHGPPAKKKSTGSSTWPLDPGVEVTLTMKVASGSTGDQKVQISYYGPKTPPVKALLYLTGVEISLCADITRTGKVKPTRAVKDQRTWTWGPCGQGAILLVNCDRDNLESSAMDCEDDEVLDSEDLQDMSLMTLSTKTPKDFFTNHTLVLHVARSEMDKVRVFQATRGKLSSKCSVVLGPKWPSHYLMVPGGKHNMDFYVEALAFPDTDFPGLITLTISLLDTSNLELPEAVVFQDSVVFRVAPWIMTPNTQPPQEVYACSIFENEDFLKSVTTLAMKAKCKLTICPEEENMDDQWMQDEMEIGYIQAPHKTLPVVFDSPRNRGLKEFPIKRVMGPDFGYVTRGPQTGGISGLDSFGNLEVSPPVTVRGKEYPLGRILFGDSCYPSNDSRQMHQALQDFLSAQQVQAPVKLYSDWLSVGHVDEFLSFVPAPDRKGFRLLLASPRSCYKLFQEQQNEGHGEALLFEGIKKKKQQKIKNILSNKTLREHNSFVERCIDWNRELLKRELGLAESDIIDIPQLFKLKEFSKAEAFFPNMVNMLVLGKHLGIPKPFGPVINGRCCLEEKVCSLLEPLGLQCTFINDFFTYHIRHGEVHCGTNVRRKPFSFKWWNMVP
# assay_notes: In vitro PAD4 BAEE biochemical assay
# assay_context: human PAD4, BAEE substrate; 5 nM PAD4, 2 mM calcium chloride, 3 mM BAEE; geometric mean of multiple experiments
Answers are plain numbers, as −log10 of the molar value.

compound | pIC50
COc1cc(C(=O)N2CCC[C@@H](N)C2)cc2nc(-c3cc4ccc(N(C(F)F)S(=O)(=O)C5COC5)nc4n3CC3CC3)c(C)n12 | 6.63
COc1cc(C(=O)N2CCC[C@@H](N)C2)cc2nc(-c3cc4ccc([C@@H](C)NC(=O)C56CC(F)(C5)C6)nc4n3CC3CC3)c(C)n12 | 7.10
COc1cc(C(=O)N2[C@H]3CC[C@@H]2[C@H](N)C3)cc2nc(-c3cc4ccc([C@@H](C)NC(=O)NCc5cccnc5)nc4n3CC3CC3)c(C)n12 | 7.37
COc1cc(C(=O)N2[C@H]3CC[C@@H]2[C@H](N)C3)cc2nc(-c3cc4ccc([C@@H](C)NC(=O)N5CCC(C(=O)O)C5)nc4n3CC3CC3)c(C)n12 (stereo partly drawn) | 7.31
COc1cc(C(=O)N2[C@H]3CC[C@@H]2[C@H](N)C3)cc2nc(-c3cc4ccc([C@@H](C)NC(=O)NC(C)(C)C(F)(F)F)nc4n3CC3CC3)c(C)n12 | 7.33

With those in mind, consider the next compound.
INPUT: // pIC50 lookup, key: COc1cc(C(=O)N2CC[C@@H](O)[C@@H](N)C2)cc2nc(-c3cc4ccc([C@@H](C)NC(=O)c5ccccc5)nc4n3CC3CC3)c(C)n12
OUTPUT: 6.75

###

# tested_system: human PAD4 (Homo sapiens, UniProt Q9UM07)
# Construct: human PAD4 (NM_012387), A2P663, was PCR amplified; His-SUMO (N, cleaved yes)
# assay_notes: In vitro PAD4 BAEE biochemical assay
# assay_context: human PAD4, BAEE substrate; 5 nM PAD4, 2 mM calcium chloride, 3 mM BAEE; geometric mean of multiple experiments
# Criterion met = IC50 below 100 nM (exclusive); Criterion not met = IC50 at/above 100 nM

Example cases with answers are listed next.
compound | tested_system | discrete_label
COc1cc(C(=O)N2[C@H]3CC[C@@H]2[C@H](N)C3)cc2nc(-c3cc4ccc([C@@H](C)NC(=O)NC(C)(C)C)nc4n3CC3CC3)c(C)n12 [Example 244] | human PAD4 (Homo sapiens, UniProt Q9UM07) | Criterion met
COc1cc(C(=O)N2[C@H]3CC[C@@H]2[C@H](N)C3)cc2nc(-c3cc4ccc([C@@H](C)NC(=O)C(C)(C)CO)nc4n3CC3CC3)c(C3CC3)n12 [Example 86] | human PAD4 (Homo sapiens, UniProt Q9UM07) | Criterion met
COc1cc(C(=O)N2[C@H]3CC[C@@H]2[C@H](N)C3)cc2nc(-c3cc4ccc(C5CCCCN5C(C)=O)nc4n3CC3CC3)c(C)n12 (stereo partly drawn) [Example 515] | human PAD4 (Homo sapiens, UniProt Q9UM07) | Criterion not met

INPUT: Say whether its IC50 is strictly beneath 100 nM. Entry: COc1cc(C(=O)N2[C@H]3CC[C@@H]2[C@H](N)C3)cc2nc(-c3cc4ccc([C@@H](C)NC(=O)N5CC6CC(C5)O6)nc4n3CC3CC3)c(C)n12 [Example 211]
OUTPUT: Criterion met

INPUT: Proceed to CS(=O)(=O)N(c1ccc2cc(-c3nc4cc(C(=O)N5CCC[C@@H](N)C5)c(F)cn4c3C3CC3)n(CC3CC3)c2n1)C(F)F [Example 392]
OUTPUT: Criterion not met

INPUT: Proceed to COc1cc(C(=O)N2CC[C@@H]3CCNC[C@H]32)cc2nc(-c3cc4ccc(N(C(F)F)S(C)(=O)=O)nc4n3CC3CC3)c(C)n12 [Example 418]
OUTPUT: Criterion not met

###

# tested_system: human PAD4 (Homo sapiens, UniProt Q9UM07)
# Construct: human PAD4 (NM_012387), A2P663, was PCR amplified; His-SUMO (N, cleaved yes)
# assay_notes: In vitro PAD4 BAEE biochemical assay
# assay_context: human PAD4, BAEE substrate; 5 nM PAD4, 2 mM calcium chloride, 3 mM BAEE; geometric mean of multiple experiments
readout_kind: IC50 (µM)
Numbers only, in µM.

smiles_input | tested_system | IC50 [µM]
COc1cc(C(=O)N[C@@H]2CC[C@H]3CC[C@@H]2N3)cc2nc(-c3cc4ccc(N(C(F)F)S(C)(=O)=O)nc4n3CC3CC3)c(C)n12 | human PAD4 (Homo sapiens, UniProt Q9UM07) | 30
COc1cc(C(=O)N2[C@H]3CC[C@@H]2[C@H](N)C3)cc2nc(-c3cc4ccc([C@@H](C)N5CCCCC5=O)nc4n3CC3CC3)c(C)n12 | human PAD4 (Homo sapiens, UniProt Q9UM07) | 0.0356
COc1cc(C(=O)N2C[C@H](N)CCN2C)cc2nc(-c3cc4ccc([C@@H](C)NC(=O)C56CC(F)(C5)C6)nc4n3CC3CC3)c(C)n12 | human PAD4 (Homo sapiens, UniProt Q9UM07) | 0.0696
COc1cc(C(=O)N2[C@H]3CC[C@@H]2[C@H](N)C3)cc2nc(-c3cc4ccc(N(C5CCC5)S(C)(=O)=O)nc4n3CC3CC3)c(C)n12 | human PAD4 (Homo sapiens, UniProt Q9UM07) | 0.1
COc1cc(C(=O)N[C@@H]2CC[C@@H](C)NC2)cc2nc(-c3cc4ccc(N(C(F)F)S(C)(=O)=O)nc4n3CC3CC3)c(C)n12 | human PAD4 (Homo sapiens, UniProt Q9UM07) | 38.7

With those in mind, consider the next molecule.
INPUT: Notebook: pull reported IC50 for human PAD4 (Homo sapiens, UniProt Q9UM07), entry COc1cc(C(=O)N2CCC[C@@H](N)C2)cc2nc(-c3cc4ccc([C@@H](C)NC(=O)C56CC(C#N)(C5)C6)nc4n3CC3CC3)c(C3CC3)n12
OUTPUT: 0.208

###

# tested_system: human PAD4 (Homo sapiens)
# Construct: human PAD4 (NM_012387), A2P663, was PCR amplified; His-SUMO (N, cleaved yes)
# assay_notes: In vitro PAD4 BAEE biochemical assay
# assay_context: human PAD4, BAEE substrate; 5 nM PAD4, 2 mM calcium chloride, 3 mM BAEE; geometric mean of multiple experiments
For each of the compounds below, state its IC50.
One number for each entry, in nM.

In the examples that follow, each entry is paired with its recorded IC50.
compound | result
COc1cc(C(=O)N2[C@H]3CC[C@@H]2[C@H](N)C3)cc2nc(-c3cc4ccc([C@@H]5CCNC(=O)C5)nc4n3CC3CC3)c(C)n12 | 69.3
COc1cc(C(=O)N2[C@H]3CC[C@@H]2[C@H](N)C3)cc2nc(-c3cc4ccc([C@@H](C)CC(=O)N5CCCC5)nc4n3CC3CC3)c(C)n12 | 59.1
COc1cc(C(=O)N2[C@H]3CC[C@@H]2[C@H](N)C3)cc2nc(-c3cc4ccc([C@@H](C)NC(=O)[C@H]5CC5(F)F)nc4n3CC3CC3)c(C)n12 | 30.4
COc1cc(C(=O)N2[C@H]3CC[C@@H]2[C@H](N)C3)cc2nc(-c3cc4ccc([C@@H](C)NC(=O)N5CC(OC(F)(F)F)C5)nc4n3CC3CC3)c(C)n12 | 52
COc1cc(C(=O)N2[C@H]3CC[C@@H]2[C@H](N)C3)cc2nc(-c3cc4ccc([C@@H](C)NC(=O)C(C)(C)C(=O)O)nc4n3CC3CC3)c(C)n12 | 45.5

Items follow; give IC50 for each.
1. COc1cc(C(=O)N2[C@H]3CC[C@@H]2[C@H](N)C3)cc2nc(-c3cc4ccc(Oc5ccccc5)nc4n3CC3CC3)c(C)n12
2. COc1cc(C(=O)N2[C@H]3CC[C@@H]2[C@H](N)C3)cc2nc(-c3cc4ccc([C@@H](C)NC(=O)C5CC5)nc4n3CC3CC3)c(C)n12
3. CCO[C@@H]1CCN(C(=O)c2cc(OC)n3c(C)c(-c4cc5ccc([C@@H](C)NC(=O)c6ccccc6)nc5n4CC4CC4)nc3c2)C[C@@H]1N
4. CC[C@H]1CCCS(=O)(=O)N1c1ccc2cc(-c3nc4cc(C(=O)N5[C@H]6CC[C@@H]5[C@H](N)C6)cc(OC)n4c3C)n(CC3CC3)c2n1
5. CCc1ccc2cc(-c3nc4cc(C(=O)N5[C@H]6CC[C@@H]5[C@H](N)C6)cc(OC)n4c3C3CCC3)n(CC3CC3)c2n1

OUTPUT:
1. 553
2. 41.4
3. 307
4. 73.3
5. 996
